- assay_details: Ocular pharmacokinetics of formulations, Example 20-5
- Assay type: in vivo, Dutch Belted rabbits
- cond: Dutch Belted, rabbit, central retina, topical, 4 mg/mL (30 μL per eye, bilateral); Group 5: 4 mg/mL suspension (Control), 30 μm particles (Table 19-1) / Native (≈50) (Table 19-2), TRIS 0.60%, glycerol 2%, HEC 0.2%, HPMC 0.08%, Vitamin K3 1 μM, pH 6, QD for 4 days; 1 hr post dose on Day 5; read-out: Central Retina concentration
outcome_measure: concentration at 1 h (nM)
One number for each entry, in nM.

Q: Tell me its concentration at 1 h given Cl.NC(=O)c1c(OCc2c(F)cc(Br)cc2F)nsc1NC(=O)NCCCCN1CCCC1 [Compound-I, hydrochloride] as the entry.
Ans: 44.2

----------
- assay_details: Ocular pharmacokinetics of formulations, Example 20-5
- Assay type: in vivo, Dutch Belted rabbits
- cond: Dutch Belted, rabbit, central choroid, topical, 30 μL per eye; Group 11: 6 mg/mL suspension, 50 μm particles, TRIS 0.60%, glycerol 2%, HEC 0.2%, HPMC 0.08%, Vitamin K3 1 μM, pH 6, QD for 4 days; 1 hr post dose on Day 5; read-out: Central Choroid concentration
- Method: The study design (Table 19-1) consisted of forty-seven (47) Dutch Belted rabbits, each receiving a 30 μL bilateral topical ocular dose. Various suspension formulations of the present application were evaluated and compared against a cyclodextrin-based eye drops solution (Control Group 1, Table 19-1). […] Ocular sampling occurred one hour following the first daily dose on Day 5 for all groups. […] For Group 5 only, samples were analyzed for Vitamin K3. […]
outcome_measure: concentration at 1 h (nM)
One number for each entry, in nM.

Q: Tell me its concentration at 1 h given Cl.NC(=O)c1c(OCc2c(F)cc(Br)cc2F)nsc1NC(=O)NCCCCN1CCCC1 [Compound-I, hydrochloride] as the entry.
Ans: 148

----------
- assay_details: 1- to 5-day PK with topical ocular Compound-I formulations (Example 5)
- Format: in vivo, Dutch Belted rabbits
- cond: Dutch Belted, rabbit, peripheral choroid, topical, 30 μL per eye (bilateral), b.i.d. groups (3,7,12,14,16), 4 days; 1 hr after day 5 morning dose; read-out: Average Concentration Peripheral Choroid
outcome_measure: concentration at 1 h (µM)
Numbers only, in µM.

Q: Tell me its concentration at 1 h given Cl.NC(=O)c1c(OCc2c(F)cc(Br)cc2F)nsc1NC(=O)NCCCCN1CCCC1 [Compound-I, hydrochloride] as the entry.
Ans: 0.765

----------
- assay_details: Ocular pharmacokinetics of formulations, Example 20-4
- Assay type: in vivo, Dutch Belted rabbits
- cond: Dutch Belted, rabbit, plasma, topical, Group 5: 6 mg/mL FB suspension, PSD 30 μm/XL, HPMC 0.08%, glycerol 2.5%, HEC 0.2%, VitK3 1 μM, pH ≈7.5, QD; Day 5, 1 hr post dose; read-out: Plasma concentration
outcome_measure: concentration at 1 h (nM)
One number for each entry, in nM.

Q: Tell me its concentration at 1 h given NC(=O)c1c(OCc2c(F)cc(Br)cc2F)nsc1NC(=O)NCCCCN1CCCC1 as the entry.
Ans: 3.91

----------
- assay_details: Ocular pharmacokinetics of formulations, Example 20-5
- Format: in vivo, Dutch Belted rabbits
- cond: Dutch Belted, rabbit, plasma, topical, 30 μL per eye; Group 11: 6 mg/mL suspension, 50 μm particles, TRIS 0.60%, glycerol 2%, HEC 0.2%, HPMC 0.08%, Vitamin K3 1 μM, pH 6, QD for 4 days; 1 hr post dose on Day 5; read-out: Plasma concentration
outcome_measure: concentration at 1 h (nM)
Answers are plain numbers, in nM.

Q: Tell me its concentration at 1 h given Cl.NC(=O)c1c(OCc2c(F)cc(Br)cc2F)nsc1NC(=O)NCCCCN1CCCC1 [Compound-I, hydrochloride] as the entry.
Ans: 7.72

Cited source: patent US10183014B2
